FYI, the data here is from the supplement of paper PMC9112550.

The entries below are paired with their reported shrunken log2 fold change.
# System: Escherichia coli TOP10;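 note: peptides expressed intracellularly from a pBAD plasmid library in pooled LB shake-flask culture, induced with 0.3% L-arabinose, DNA abundance read by NGS, three biological replicates, DESeq2 with apeglm shrinkage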
# test details: shrunken log2 fold change of peptide-encoding DNA abundance (4.5 h post-induction vs induction); higher = less antimicrobial activity (less host growth inhibition)
# measurement context: time post-induction: 4.5 h; library: site-saturation at positions 5, 18, 19, 20
Write no unit; give the number alone.

RRIRNRPPRLPRPRPRPTRYPRP
0.217
RRIRNRPPRLPRPRPRPMHAPRP
0.0438
RRIRTRPPRLPRPRPRPPSFPRP
0.264
RRIRQRPPRLPRPRPRPTGFPRP
0.051

response.value for `RRIRDRPPRLPRPRPRPYISPRP` (field: shrunken log2 fold change) = -0.176

response.value for `RRIRNRPPRLPRPRPRPGWQPRP` (field: shrunken log2 fold change) = 0.116

response.value for `RRIRHRPPRLPRPRPRPFVHPRP` (field: shrunken log2 fold change) = -0.836

response.value for `RRIRWRPPRLPRPRPRPSLLPRP` (field: shrunken log2 fold change) = 0.0919

response.value for `RRIRVRPPRLPRPRPRPFTGPRP` (field: shrunken log2 fold change) = -0.115

response.value for `RRIRHRPPRLPRPRPRPRVGPRP` (field: shrunken log2 fold change) = 0.371
